run.description: Quantitative highthroughput screen to assess conditional lethalithy of NOMO1 cells grown in Human Plasma-Like Medium with dialyzed fetal bovine serum (HPLM+ds) (AID 1963878); further: nearly all actives have a fitted effect of over 35% in size;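 on viability: 100% = DMSO wells and 0% = empty wells on each plate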
measurement.parameters: NOMO1 AML cells in HPLM+ds, CellTiter-Glo viability, 48 h; series mostly up to 45.8 µM
Records with an inconclusive call do not appear. Activity calls are given as the source filed them. The call rests on the fitted dose curve; in most records, active means well fitted cell-killing curve with a large enough effect; inconclusive means small, poorly fitted or top-dose-only effect, or effect the other way; inactive means no such curve, though single readings can be large or run the other way. Numbered stars: 1 amine (or outer) side, 2 acyl side, 3 side chain; on linkers, the order of the positions; unused ones are H or OH. Bridge positions count the residues as written; N and C are the ends. Square brackets hold non-standard residues; d marks the D form. Peptide text beside a SMILES is read from it. I, II: the chains in the order shown. Actinocin(9to1) = Cc1c2oc3c(C)ccc(C(=O)[*:1])c3nc-2c(C(=O)[*:2])c(N)c1=O; NMeV = CN[CH](C(=O)O)C(C)C; Sar = CNCC(=O)O
Outcome (select one): active, inactive

A selection of reference data follows.
CCCS(=O)(=O)Nc1ccc(F)c(C(=O)c2c[nH]c3ncc(-c4ccc(Cl)cc4)cc23)c1F ... inactive
CC(C)(C)c1nc2c3cc[nH]c(=O)c3c3cc(F)ccc3c2[nH]1 ... active
CC(C)(O)CC[C@@H](O)[C@](C)(O)[C@H]1CC[C@@]2(O)C3=CC(=O)[C@@H]4C[C@@H](O)[C@@H](O)C[C@]4(C)[C@@H]3CC[C@]12C ... inactive

Data request: Dear colleague, could you share the recorded outcome for c1cnc2cc3c(cc2n1)C1CNCC3C1 when you have a moment?
Data returned: inactive

Data request: Field: outcome | Entry: CCCCCCCCc1ccc(CCC(N)(CO)CO)cc1
Data returned: active

Data request: Hello, I am checking results. What call was entered for CCCn1c(=O)c2[nH]c(C34CC5CC3C[C@@H](C5)C4)nc2n(CCC)c1=O ?
Data returned: inactive

Data request: Identify the outcome logged in this assay for the compound shown: Cc1c2oc3c(C)ccc(C(=O)NC4C(=O)NC(C(C)C)C(=O)N5CCCC5C(=O)N(C)CC(=O)N(C)C(C(C)C)C(=O)OC4C)c3nc-2c(C(=O)NC2C(=O)NC(C(C)C)C(=O)N3CCCC3C(=O)N(C)CC(=O)N(C)C(C(C)C)C(=O)OC2C)c(N)c1=O (centres undefined) (I: TVP[Sar][NMeV] / II: TVP[Sar][NMeV]; ester I:1-I:C, II:1-II:C; linker I:N-II:N via Actinocin(9to1); configuration not given here)
Data returned: inactive

Data request: What classification did CC(C)(C)NC(=O)[C@H]1CN(Cc2cccnc2)CCN1C[C@@H](O)C[C@@H](Cc1ccccc1)C(=O)N[C@H]1c2ccccc2C[C@H]1O end up with in this test?
Data returned: inactive

Data request: Identify the outcome logged in this assay for the compound shown: CC1CC2C3CCC4=CC(=O)C=C[C@]4(C)[C@@]3(F)[C@@H](O)C[C@]2(C)[C@@]1(O)C(=O)CO (some centres undefined)
Data returned: inactive

Data request: Assay outcome for Cn1cnc2c1c(=O)[nH]c(=O)n2C : what was it?
Data returned: active

Data request: Dear all, I need the recorded test outcome for CC[C@H](C)C(=O)O[C@H]1C[C@H](O)C=C2C=C[C@H](C)[C@H](CC[C@@H](O)C[C@@H](O)CC(=O)O)[C@H]21 , thank you.
Data returned: inactive

Data request: Record lookup: outcome of this test for Cn1c(=O)c2c(ncn2CC(O)CO)n(C)c1=O (centres undefined) ?
Data returned: inactive

Data request: For O=C(C=Cc1ccc(CN(CCO)CCc2c[nH]c3ccccc23)cc1)NO , which call appears in the assay record?
Data returned: active

Data request: Short answer needed: outcome of this test for CCCCn1c(=O)n(Cc2ccccc2F)c(=O)c2[nH]c(Cc3ccc(NC(C)=O)cc3)nc21 ?
Data returned: inactive

Data request: Recorded test outcome, item Cc1cc2c(F)c(Oc3ncnn4cc(OC[C@@H](C)O)c(C)c34)ccc2[nH]1
Data returned: inactive

Data request: Hi, do you know how Nc1ccn(C[C@@H](CO)OCP(=O)(O)O)c(=O)n1 came out in this test?
Data returned: inactive

Data request: Fill in: this test's call for CCOCC(O)COc1ccc(NC(=O)CC[S+](C)C)cc1 (centres undefined) is ___
Data returned: inactive

Data request: Name the outcome recorded for C=CCc1cc(OC)c(O)c(C(=O)NCCO)c1 in the assay.
Data returned: inactive

Data request: Recorded test call requested for O=C(Nc1nnc(-c2ccco2)o1)c1cc(-c2ccccc2)nc2ccccc12
Data returned: active

Data request: Called result for COc1cc2c(cc1OC)C1CC(=O)C(CC(C)C)CN1CC2 (centres undefined)
Data returned: inactive

Data request: Hi, sorry to bother you, what did the test record for CC=C(C(=CC)c1ccc(O)cc1)c1ccc(O)cc1 ?
Data returned: inactive

* * *

run.description: Quantitative highthroughput screen to assess conditional lethalithy of NOMO1 cells grown in RPMI1640 with untreated serum (RPMI+s) (AID 1963876); further: nearly all actives have a fitted effect of over 35% in size;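 on viability: 100% = DMSO wells and 0% = empty wells without cells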
measurement.parameters: NOMO1 AML cells in RPMI+serum, CellTiter-Glo viability, 48 h; series mostly up to 45.8 µM
Results filed as inconclusive are left out. Active and inactive are the calls of the source. The call rests on the fitted dose curve; in most records, active means well fitted cell-killing curve with a large enough effect; inconclusive means small, poorly fitted or top-dose-only effect; inactive means flat fitted curve, though single readings scatter.
// one of active, inactive, no free text

The examples below pair each entry with its known result.
CCC=CC[C@H]1C(=O)CC[C@@H]1CC(=O)OC ... inactive
O=c1oc2cc(O)ccc2s1 ... inactive
CN(C)S(=O)(=O)c1ccc2c(c1)C(=Cc1cc3c([nH]1)CCCC3)C(=O)N2 ... inactive
Cc1nc(NC(=O)N2CCC[C@@H]2C(N)=O)sc1-c1ccnc(C(C)(C)C(F)(F)F)c1 ... active
NCc1ccc(OCCCc2sc(-c3ccc4c(c3)/C(=N/Nc3nc5ccccc5s3)CCC4)nc2C(=O)O)cc1 ... active
CCCCC(CC)COC(=O)C(C#N)=C(c1ccccc1)c1ccccc1 (stereo not given) ... inactive

Data request: Look up the recorded call for CC1COc2c(N3CCN(C)CC3)c(F)cc3c(=O)c(C(=O)O)cn1c23 (stereo not given) in this test.
Data returned: inactive

Data request: Identify the outcome logged in this assay for the compound shown: C[C@H](c1ccc(F)cc1CCCC(=O)O)N(c1cc(F)ccc1F)S(=O)(=O)c1ccc(Cl)cc1
Data returned: inactive

Data request: # lookup: test call for CCCCCN(C)CCC(O)(P(=O)(O)O)P(=O)(O)O
Data returned: inactive

Data request: GET /call?item= Cc1c(-c2ccnn2C)cc(C(=O)NCc2ccc(S(C)(=O)=O)cn2)c(=O)n1-c1cccc(C(F)(F)F)c1 returns the recorded outcome of this test.
Data returned: inactive

* * *

run.description: Quantitative highthroughput screen to assess conditional lethalithy of P12 Ichikawa cells grown in Human Plasma-Like Medium with dialyzed fetal bovine serum (HPLM+ds) (AID 1963879); further: nearly all actives have a fitted effect of over 35% in size
measurement.parameters: ATP luminescence, 48 h; viability; series mostly up to 45.8 µM
Results filed as inconclusive are left out. Active and inactive are the calls of the source. Calls follow the shape of the dose curve; as a rule, active = well fitted cell-killing curve with a large enough effect; inconclusive = small, poorly fitted or top-dose-only effect; inactive = flat fitted curve, though single readings scatter.
Please answer using one outcome listed in true (1) = active, false (0) = inactive

Cc1ccccc1-n1c(Cn2nc(-c3cccc(O)c3)c3c(N)ncnc32)nc2cccc(C)c2c1=O ... true (1)
c1cc(-c2sc(-c3ccncc3)c(-c3ccncc3)c2-c2ccncc2)ccn1 ... false (0)
Cc1cccc(CN2CCN(C(c3ccccc3)c3ccc(Cl)cc3)CC2)c1 (centres undefined) ... false (0)
C[N+](C)(C)CC(=O)O ... false (0)
C[C@]12C=CC(=O)N[C@@H]1CC[C@H]1[C@H]3CC[C@@H](C(=O)Nc4cc(C(F)(F)F)ccc4C(F)(F)F)[C@@]3(C)CC[C@@H]12 ... false (0)
O=C(Nc1ccc(Oc2ccnc3[nH]ccc23)c(F)c1)c1cccn(-c2ccc(F)cc2)c1=O ... false (0)

Data request: Hi, do you know how COc1ccc(C2Sc3ccccc3N(CCN(C)C)C(=O)C2OC(C)=O)cc1 (centres undefined) came out in this test?
Data returned: false (0)

Data request: I would be grateful if you could indicate the recorded call for COc1cc2c(Oc3ccc(NC(=O)C4(C(=O)Nc5ccc(F)cc5)CC4)cc3F)ccnc2cc1OCCCN1CCOCC1 .
Data returned: true (1)

Data request: Hi team, can someone confirm the assay call for OC[C@H]1O[C@@H](Oc2cc(O)cc(C=Cc3ccc(O)cc3)c2)[C@H](O)[C@@H](O)[C@H]1O ?
Data returned: false (0)

* * *

run.description: Viability qHTS for spleen associated tyrosine kinase inhibitor (SYKi) drug resistant MV4-11 cells (AID 1963824); further: nearly all actives have a fitted effect of over 35% in size; further: potency means the concentration at half of the fitted maximal effect
measurement.parameters: SYKi-resistant MV4-11 viability, CellTiter-Glo, 72 h; series mostly up to 45 µM
Inconclusive results are not listed. Calls of active or inactive are those of the source. Calls follow the shape of the dose curve; as a rule, active = well fitted cell-killing curve with a large enough effect; inconclusive = small, poorly fitted or top-dose-only effect, or effect the other way; inactive = no such curve, though single readings can be large or run the other way.
measurement.kind: Potency

Take a look at these entries with their results.
O=C(CCC1CCN(Cc2ccccc2)CC1)c1ccc2c(c1)NCCCC2 ... 14.6 µM (active)
C[C@@H]1CC[C@]2(C(=O)O[C@@H]3O[C@H](CO)[C@@H](O)[C@H](O)[C@H]3O)CC[C@]3(C)C(=CCC4[C@@]5(C)C[C@@H](O)[C@H](O)C(C)(C)C5CC[C@]43C)C2[C@]1(C)O (stereo partly drawn) ... inactive
O=C(O)/C=C/c1ccc(-c2ccc(O)c(C34CC5CC(CC(C5)C3)C4)c2)cc1 ... 0.103 µM (active)
C[C@H]1C[C@@H](n2c(Nc3ccc(OC(F)(F)F)cc3)nc3cc(CCC(=O)O)ccc32)CC(C)(C)C1 ... 10.5 µM (active)
C=CCn1c(=O)n([C@@H]2O[C@H](CO)[C@@H](O)[C@H]2O)c2nc(N)[nH]c(=O)c21 ... inactive
C=CC(C)(O)C(O)CC1C(C)(O)C(O)C(O)C2C(C)(C)CCCC21C (stereo not drawn) ... inactive
COc1ccc2c(c1OC)C(=O)OC2[C@H]1c2c(cc3c(c2OC)OCO3)CCN1C (stereo partly drawn) ... 23.5 µM (active)

Here is the next item to consider.
Data request: What value of measured Potency is listed for O=C1NC(O)CCN1[C@@H]1O[C@H](CO)[C@H](O)[C@H]1O (stereo partly drawn) ?
Data returned: inactive
